A collection of molecules and their measured cytotoxicity at 70.5 h
Assay: Human HepG2 cell viability assay in 384 well format
Assay type: toxicity, cell-based
Set-up: dose 125 nL, time 70.5 hour; concentration not given beside the values
Settings: HepG2 cells, read-out: Inhibition

molecule	cytotoxicity at 70.5 h
COCCc1noc(CN2CCOC(Cn3nc(C)cc3C)C2)n1 (stereo unspecified)	2.63%
CCN(CCNCc1cccc(C#N)c1)C1CC1	10.9%
O=C1NC(=O)c2c3c(nc(O)c21)CCCC3	0.775%
COc1ccc(-n2nnnc2C2(NCc3ccco3)CCCCC2)cc1	-9.96%
CCCOc1ccc(C(=O)N2C[C@@H](CN3CCCC3)[C@@H](CO)C2)cc1Cl	1.78%
CC(CNS(C)(=O)=O)c1ccc(F)c(F)c1 (stereo unspecified)	-1.08%
